test system: L. donovani promastigotes (Ld1S); assay: Resazurin reduction viability assay on cultured L. donovani promastigotes; assay type: cell-based; settings: Leishmania donovani, read-out: EC50 against L. donovani promastigotes
Quantity Measured: pEC50
Please treat pEC50 as minus the base-10 logarithm of the molar concentration.

-- ask Give the value of pEC50 reported for the following: COc1ccc(Oc2ccc(C(C)N(C)c3ncc4c(N)nc(N)nc4n3)cc2)cc1 (stereo not shown)
-- reply 7.10

====

system: intracellular L. donovani amastigotes (strain Ld1S); assay: High content assay on intramacrophagic L. donovani amastigotes in primary mouse macrophages; assay type: cell-based, Leishmania donovani; settings: Leishmania donovani, BMDM, 72 h, read-out: EC50 (L. donovani Am)
Quantity Measured: EC50 (nM)
Give the value in nM but do not write nM after it.

The cases that follow already have their EC50 on record.
Compound: COc1ccc(Oc2ccc(C(C)N(C)c3ncc4c(N)nc(N)nc4n3)cc2)cc1 (centres unmarked) [TCMDC-143295]
Unit Text: nM
EC50: 480
--
Compound: Cc1ccc(NC(=O)c2ccc([N+](=O)[O-])s2)cc1S(=O)(=O)N1CCOCC1 [TCMDC-143577]
Unit Text: nM
EC50: 1250
--
Compound: O=C(Nc1cccc(S(=O)(=O)Nc2ccc(Br)cc2)c1)c1ccc([N+](=O)[O-])s1 [TCMDC-143563]
Unit Text: nM
EC50: 590

-- ask Give the value of EC50 reported for the following: COc1ccc(NS(=O)(=O)c2cc(NC(=O)c3ccc([N+](=O)[O-])s3)ccc2OC)cc1 [TCMDC-143163]
-- reply 790

-- ask Give the value of EC50 reported for the following: O=C(Nc1ccc(S(=O)(=O)N2CCCC2)cc1)c1ccc([N+](=O)[O-])s1 [TCMDC-143169]
-- reply 6880

These entries and their values trace back to paper PMC6345745.
